- System: OVCAR-8 ovarian
- Protocol Description: NCI tumour cell line growth inhibition, 48 h; in the data active = GI50 below about 0.43 µM; inactive = the rest
In this exercise, the only acceptable responses are 1.0 = active, 0.0 = inactive

See these solved cases before continuing.
COC([CH2][Hg][n]1cnc2c1c(=O)n(C)c(=O)n2C)CN1C(=O)c2ccccc2S1(=O)=O (stereo not given); 0.0
C=CC(=O)Nc1cc(Nc2ncc(C(=O)OC(C)C)c(-c3cn(C)c4ccccc34)n2)c(OC)cc1N(C)CCN(C)C; 0.0
COc1cnc2c(c1)C(=O)c1c-2n(CCCN2CCOCC2)c(=O)c2cc(F)ccc12; 1.0
CC1CCc2nc[nH]c(=O)c21 (stereo not given); 0.0

Now consider the entry below.
Fill in: this test's call for COc1cccc(-c2cc(-c3cccc(NS(C)(=O)=O)c3)nc(N)c2C#N)c1O is ___
1.0

----------
- Test system: HL-60(TB) leukemia
- Protocol Description: NCI tumour cell line growth inhibition, 48 h
Give measured TGI for each item. Keep answers brief.

Worked cases, TGI given:
CC(C)=CCC\C(C)=C/C=C/C(C)=C\C=C\C(C)=C/C=C/C=C(C)\C=C\C=C(C)/C=C/C=C(/C)CCC=C(C)C; > 100 µM
C1CN(c2nc3c(nnc4nc(N5CCOCC5)sc43)s2)CCO1; > 100 µM
C[C@@H]1CC[C@]2(C(=O)O)CC[C@]3(C)C(=CC[C@@H]4[C@@]5(C)CC[C@H](O)C(C)(C)[C@@H]5CC[C@]43C)[C@@H]2[C@]1(C)O; 19.8 µM
O=C(Nc1ccc(F)cc1)Nc1ccc(Cl)c([N+](=O)[O-])c1; 8.56 µM

Quick one: give me TGI for each item below, same order please.
1. CNS(=O)(=O)NNS(=O)(=O)c1ccccc1
2. COc1cc(/C=N\NC(=O)CN2CCN(c3cc4c(cc3F)c(=O)c(C(=O)N/N=C/c3cc(OC)c(OC)c(OC)c3)cn4C3CC3)CC2)cc(OC)c1OC

["> 100 µM", "> 31.7 µM"]

Quick one: give me TGI for each item below, same order please.
1. O=C(Nc1nc2ccc([N+](=O)[O-])cc2s1)C(=O)C(C1OC(=O)c2ccccc21)[N+](=O)[O-] (centres undefined)
2. Cc1ccsc1C(=S)Nc1ccc(Cl)c(/C=N/OC(C)(C)C)c1
3. CC(=O)NC(Cc1ccc(O)cc1)C(=O)O (centres undefined)

> 100 µM
74.7 µM
> 100 µM

----------
- Test system: LXFL 529 NSCLC
- Protocol Description: NCI tumour cell line growth inhibition, 48 h
Give measured TGI for each item. Keep answers brief.

Worked cases, TGI given:
CNS(=O)(=O)NNS(=O)(=O)c1ccccc1; > 100 µM
CC(C)CCS(=O)(=O)OCCCCOS(=O)(=O)CCC(C)C; > 100 µM
O=C(Nc1nc2ccc([N+](=O)[O-])cc2s1)C(=O)C(C1OC(=O)c2ccccc21)[N+](=O)[O-] (stereo not given); > 100 µM
Cc1c(C(=O)CC(=O)C(=O)Nc2ccccc2C(F)(F)F)[n+](=O)c2ccccc2n1[O-]; 62.1 µM

Provide one value: measured TGI of NC1=NCCC1(c1ccccc1)c1ccccn1 (stereo not given)
> 100 µM

----------
- System: UACC-257 melanoma
- Protocol Description: NCI tumour cell line growth inhibition, 48 h
Param threshold (4 µM) applies to TGI; output Fulfilled when value >= threshold, Not fulfilled when value < threshold.

Cc1ccccc1C(=O)N1CCc2c([nH]c3ccccc23)C1; Fulfilled
Nc1c(C(=O)c2cccc(CCS(N)(=O)=O)c2)cnn1-c1ccc(F)cc1; Fulfilled
O=C(NC(=O)c1ccccc1[N+](=O)[O-])Nc1ccc(Oc2ncc(Br)cn2)c(Cl)c1; Not fulfilled

Does TGI meet or surpass 4 µM for Nc1nc(-n2c(-c3ccccc3)nc3c(Br)cc(Br)cc3c2=O)nnc1-c1cccc(Cl)c1Cl ?
Fulfilled

Does TGI meet or surpass 4 µM for c1csc(-c2ccc(-c3cccc4nsnc34)s2)c1 ?
Fulfilled

Does TGI meet or surpass 4 µM for CC(=O)OC1OC([C@@H]2c3cccc(O)c3C(=O)c3c(O)cc(C)cc32)C(O)C(O)C1O (stereo partly specified) ?
Not fulfilled

Does TGI meet or surpass 4 µM for Cc1cn2c(/C=N/N=C(N)N)c(-c3cccc([N+](=O)[O-])c3)nc2s1 ?
Fulfilled

Does TGI meet or surpass 4 µM for CCOC(=O)c1csc(NC(=O)CN2CCOCC2)n1 ?
Fulfilled

Does TGI meet or surpass 4 µM for C#CCNC(CS)C(=O)O (stereo unspecified) ?
Fulfilled

Does TGI meet or surpass 4 µM for CCOC(=O)Cn1c(C(F)(F)F)nc2nc(Cl)c(Cl)nc21 ?
Fulfilled

Does TGI meet or surpass 4 µM for COc1ccc(CC2c3cc4c(cc3CCN2C)OCO4)c(C=O)c1OC (stereo unspecified) ?
Fulfilled

----------
- Test system: NCI-H226 lung
- Protocol Description: NCI tumour cell line growth inhibition, 48 h
Property Label: TGI

Worked cases, TGI given:
O=[N+]([O-])c1ccc2c(c1)c(OCc1ccccc1)nn2Cc1ccccc1; > 100 µM
Cc1cc(Cc2cc(C)c(N)cc2N)c(N)cc1N; > 100 µM
COc1ccc(CC2c3cc4c(cc3CCN2C)OCO4)c(C=O)c1OC (stereo not given); > 100 µM
COC(CCC[N+](C)(C)C)CC[N+](C)(C)C (stereo not given); > 100 µM
Cc1c(C(=O)C/C(=N/NC(=O)c2ccccc2O)C(=O)Nc2ccccc2C(C)C)[n+](=O)c2ccccc2n1[O-]; > 100 µM

Quick one: give me TGI for each item below, same order please.
1. O=C(Nc1ccc(F)cc1)Nc1ccc(Cl)c([N+](=O)[O-])c1
2. C[C@@H](NC(=O)[C@@H]1C[C@]1(C)COC(=O)c1cc([N+](=O)[O-])cc([N+](=O)[O-])c1)c1cccc2ccccc12
3. O=C(CC(=O)c1cccc2ccccc12)C(=O)Nc1ccc(Cl)cc1
4. O=c1c2cc([N+](=O)[O-])cnc2sn1-c1ccc([N+](=O)[O-])cc1
5. OCc1cc2ccccc2c2c3c(ccc12)OCO3

1. 9.3 µM
2. > 100 µM
3. > 100 µM
4. > 100 µM
5. 163 µM

----------
- Tested on: 786-0 renal
- Protocol Description: NCI tumour cell line growth inhibition, 48 h
Param threshold (20 µM) applies to TGI; output True when value >= threshold, False when value < threshold.

See these solved cases before continuing.
CCOC(=O)Cn1c(C(F)(F)F)nc2nc(Cl)c(Cl)nc21; True
Cc1nc2sccn2c1-c1csc(Nc2ccccc2Cl)n1; False
CC(=O)OC1OC([C@@H]2c3cccc(O)c3C(=O)c3c(O)cc(C)cc32)C(O)C(O)C1O (stereo partly specified); False
Nc1nc(Cl)cc(NCC2(CO)CC(=O)C2)n1; True
CN1CCN(C2=NCCO2)CC1; True

Does TGI meet or surpass 20 µM for CC(=O)[CH-]C(=O)c1ccccc1.CC(=O)[CH-]C(=O)c1ccccc1.CN(C)c1ccc([O-])cc1.CN(C)c1ccc([O-])cc1.Cl.[Ti+4] ?
True

Does TGI meet or surpass 20 µM for CC(C)CCS(=O)(=O)OCCCCOS(=O)(=O)CCC(C)C ?
True

Does TGI meet or surpass 20 µM for Cc1ccccc1C(=O)N1CCc2c([nH]c3ccccc23)C1 ?
True

Does TGI meet or surpass 20 µM for CCC(=O)[C@H](C)[C@@H](OC(=O)[C@H](C)CC)[C@H](C)[C@H]1OC(CC)=C(C)C(=O)[C@@H]1C ?
True

----------
- System: OVCAR-3 ovarian
- Protocol Description: NCI tumour cell line growth inhibition, 48 h
*1 amine or outer side, *2 acyl side, *3 side chain or, on linkers, in order; H or OH if unused. Where a SMILES comes first, the peptide text is derived from it. Bridges are numbered along the chain shown (N, C = ends). [ ]: non-standard residue; d: D form. The star is where a group is joined. Phe(3,5-F2) = N[C@@H](Cc1cc(F)cc(F)c1)C(=O)O; Pro(4R-Me) = C[C@H]1CN[C@H](C(=O)O)C1; aThr = C[C@H](O)[C@H](N)C(=O)O; Pip = O=C(O)[C@@H]1CCCCN1; X10 = Fc1cc(C2CC2)ccc1N*; CO = O=C([*:1])[*:2]
Property Label: TGI (µM)
Answers are plain numbers, in µM.

Nc1ccccc1C#C/C=C\C#Cc1ccccc1OC(F)(F)F; 20.5
CN1CCCCC1CCN1c2ccccc2Sc2ccc(Cl)cc21 (stereo not drawn); 14.6

Quick one: give me TGI for each item below, same order please.
1. O=C1c2ccccc2-c2c1c1ccccc1c(=O)n2CCNCCNCCNCCn1c2c(c3ccccc3c1=O)C(=O)c1ccccc1-2
2. COc1ccc(C2CC(c3c(O)ccc4ccccc34)=NN2C(C)=O)cc1OC (stereo not drawn)
3. C[C@@H]1CC[C@]2(C(=O)O)CC[C@]3(C)C(=CC[C@@H]4[C@@]5(C)CC[C@H](O)C(C)(C)[C@@H]5CC[C@]43C)[C@@H]2[C@]1(C)O
4. ClCCN1CCC2(CC1)SSC1(CCN(CCCl)CC1)S2
5. O=C(Nc1ccc(F)cc1)Nc1ccc(Cl)c([N+](=O)[O-])c1

[4.91, 69.6, 32.6, 63.3, 19.1]

Quick one: give me TGI for each item below, same order please.
1. C1=C2/CC[C@H](Sc3ccccc3)C2C2(CCCCC/1)OCCO2 (stereo partly drawn)
2. COC(=O)c1cc(=O)nc2sc3cccc(C)c3n12
3. CN(C)C(=O)O/N=C1/C(c2c(O)[nH]c3ccccc23)=Nc2ccccc21
4. Cc1ccc2c(C)c3c(ccc4ccccc43)c[n+]2c1
5. C[C@@H]1C[C@H]2C(=O)O[C@@H](C)[C@H](NC(=O)[C@H](Cc3cc(F)cc(F)c3)NC(=O)Nc3ccc(C4CC4)cc3F)C(=O)N3CCC[C@H]3C(=O)N3CCCC[C@H]3C(=O)N[C@@H](C)C(=O)N2C1 ({X10-CO}-[Phe(3,5-F2)][aThr]P[Pip]A[Pro(4R-Me)]; ester 2-C)

72.1
82.8
57
16.8
3.27

Quick one: give me TGI for each item below, same order please.
1. CC(C)CCS(=O)(=O)OCCCCOS(=O)(=O)CCC(C)C
2. Fc1[nH]nc2ccc([C@@H]3Nc4ccc5[nH]ncc5c4[C@H]4C5CCC(C5)[C@@H]34)cc12 (stereo partly drawn)
3. CCC[CH2][Sn]([CH2]CCC)([S]c1cccc2cccnc12)[S]c1cccc2cccnc12
4. O=C1CSC(c2ccc(Cl)cc2)N1c1ccc(Oc2ccc(Cl)cc2)c(Cl)c1 (stereo not drawn)

1: 29.9; 2: 2.97; 3: 0.228; 4: 29

Provide one value: measured TGI of Cc1ccc(NC(=O)Nc2ccc(-c3cccnc3)cc2N2CCC(CO)CC2)cc1
5.23
